target: PIM3 (human) (UniProt Q86V86); test: radiometric filter-binding kinase assay, Kinase HotSpot; conditions: compound 0.5 µM; ATP 10 µM
So I've got a bunch of molecules here, and I need their residual activity values.
Answer with a number only, understood to be in %.

For the molecule `Cc1cc(Nc2nc(-c3ccccc3)nc3ccccc23)n[nH]1` , what residual activity is on record?
130

I'd like to know its residual activity. The molecule in question is `O=C(O)c1ccc2c3c1cccc3c(=O)n1c3ccccc3nc21`
4.96

Tell me the measured residual activity of `FC(F)(F)c1ccc(/C=C/c2nc(COc3ccc(CCCCn4ccnn4)cc3)co2)cc1` , please.
107

Any idea what residual activity was measured for `N#Cc1c(NC(=O)c2cccc3ccccc23)sc2c1CCCC2` ?
95.3

Please look up its residual activity: `COc1cccc(-c2cc(=O)c3ccccc3o2)c1N`
90.9

Requested field: residual activity. Item: `CCCCc1c(-c2ccc(O)cc2)[nH]c2nccnc12`
72.8

* * *

target: TEC (human) (UniProt P42680); assay: radiometric filter-binding kinase assay, Kinase HotSpot; conditions: compound 0.5 µM; ATP 10 µM
Sequence (P42680 whole entry, looked up): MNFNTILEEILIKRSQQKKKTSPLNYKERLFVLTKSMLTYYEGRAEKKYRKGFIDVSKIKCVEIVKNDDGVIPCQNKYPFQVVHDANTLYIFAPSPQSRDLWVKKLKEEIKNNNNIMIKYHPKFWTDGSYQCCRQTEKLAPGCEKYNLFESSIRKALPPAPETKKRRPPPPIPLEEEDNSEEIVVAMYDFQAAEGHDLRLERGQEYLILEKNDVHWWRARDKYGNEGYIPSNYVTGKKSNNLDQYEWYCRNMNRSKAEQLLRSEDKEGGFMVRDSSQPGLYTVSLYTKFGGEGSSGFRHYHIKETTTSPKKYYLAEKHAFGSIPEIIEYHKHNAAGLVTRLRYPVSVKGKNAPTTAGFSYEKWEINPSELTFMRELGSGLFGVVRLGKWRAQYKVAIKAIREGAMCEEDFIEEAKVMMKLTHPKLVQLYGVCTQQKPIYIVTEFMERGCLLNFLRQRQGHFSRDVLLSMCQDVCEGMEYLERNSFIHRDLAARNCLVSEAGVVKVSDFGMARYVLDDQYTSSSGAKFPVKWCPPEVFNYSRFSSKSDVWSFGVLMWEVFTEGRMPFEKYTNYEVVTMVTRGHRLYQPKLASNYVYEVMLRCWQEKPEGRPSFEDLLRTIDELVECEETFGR
I'd be grateful if you could share measured residual activity for these entries.
// note: answer is a bare numeric in %

Any idea what residual activity was measured for `N#C/C(=C1/Nc2ccccc2S1)c1ccnc(NCCc2cccnc2)n1` ?
104

May I ask what residual activity has been recorded for `COc1cc2c(cc1OC)-c1[nH]nc(Nc3cccc(F)c3)c1C2` ?
95

Given the compound `N#Cc1c(NC(=O)c2cccc3ccccc23)sc2c1CCCC2` , what is its reported residual activity?
111

# query: residual activity of entry `Cc1cc(Nc2nc(-c3ccccc3)nc3ccccc23)n[nH]1`
106

residual activity lookup needed for `O=c1c(-c2ccc(F)cc2)c(-c2ccncc2)[nH]n1-c1ccc(Cl)cc1` , thanks.
112

* * *

target: CAMK2G (human) (UniProt Q13555); assay: radiometric filter-binding kinase assay, Kinase HotSpot; settings: compound 0.5 µM; ATP 10 µM
Sequence (Q13555 whole entry, looked up): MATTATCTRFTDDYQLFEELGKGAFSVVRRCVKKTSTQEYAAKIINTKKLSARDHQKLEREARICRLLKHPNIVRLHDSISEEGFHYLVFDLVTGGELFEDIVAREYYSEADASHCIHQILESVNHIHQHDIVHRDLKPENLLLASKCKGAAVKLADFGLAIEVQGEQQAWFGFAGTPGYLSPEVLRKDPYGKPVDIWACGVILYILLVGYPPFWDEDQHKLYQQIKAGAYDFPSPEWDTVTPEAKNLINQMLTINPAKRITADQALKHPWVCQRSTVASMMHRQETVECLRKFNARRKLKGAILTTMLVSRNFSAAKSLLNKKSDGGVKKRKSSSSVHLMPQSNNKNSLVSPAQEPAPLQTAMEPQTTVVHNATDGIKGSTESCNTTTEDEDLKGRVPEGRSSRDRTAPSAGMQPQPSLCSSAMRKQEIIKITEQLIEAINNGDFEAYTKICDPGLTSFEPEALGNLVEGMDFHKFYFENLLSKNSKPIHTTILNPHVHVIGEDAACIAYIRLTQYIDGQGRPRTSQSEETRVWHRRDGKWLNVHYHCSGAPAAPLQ
resultType: residual activity (%)
Give the value, in units of %, as a plain number.

Which residual activity reading was recorded for the compound `CCOc1cc2ncnc(Nc3cccc(Br)c3)c2cc1OCC` ?
96.5

# residual activity lookup, item `N#C/C(=C1/Nc2ccccc2S1)c1ccnc(NCCc2cccnc2)n1`
111

Fill in: residual activity of `O=c1[nH]c2ccccc2n1C1CCN(Cc2ccc(-c3nc4cc5[nH]cnc5cc4nc3-c3ccccc3)cc2)CC1` is ___
105

* * *

Answer each item with its documented residual activity.
target: MAPK13 (human) (UniProt O15264); assay: radiometric filter-binding kinase assay, Kinase HotSpot; conditions: compound 0.5 µM; ATP 10 µM
Sequence (O15264 whole entry, looked up): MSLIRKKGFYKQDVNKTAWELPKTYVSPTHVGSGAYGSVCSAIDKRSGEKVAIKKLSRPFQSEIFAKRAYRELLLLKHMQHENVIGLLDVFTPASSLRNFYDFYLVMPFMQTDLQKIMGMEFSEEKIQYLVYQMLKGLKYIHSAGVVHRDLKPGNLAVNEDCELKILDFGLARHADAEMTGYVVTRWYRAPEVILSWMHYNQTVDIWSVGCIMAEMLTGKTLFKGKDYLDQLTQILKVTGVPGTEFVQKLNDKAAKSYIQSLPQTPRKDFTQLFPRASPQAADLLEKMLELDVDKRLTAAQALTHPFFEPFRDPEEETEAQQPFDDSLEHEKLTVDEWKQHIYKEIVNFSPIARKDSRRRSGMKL
Give the value in % but do not write % after it.

Return reported residual activity; argument: `N#C/C(=C1/Nc2ccccc2S1)c1ccnc(NCCc2cccnc2)n1`
100

Data request, read-out residual activity, for `O=C(O)c1ccc2c3c1cccc3c(=O)n1c3ccccc3nc21`
104

Entry `COc1cccc(-c2cc(=O)c3ccccc3o2)c1N` : reported residual activity = ?
99.8

Which residual activity reading was recorded for the compound `CCc1nc(-c2ccc(OC)cc2)[nH]c1-c1ccncc1` ?
112

I have this compound here, `O=c1cc(N2CCOCC2)oc2c(-c3ccccc3)cccc12` , and I need its recorded residual activity.
93.3

Request the reported residual activity associated with `Cn1cc(/C=C2\C(=O)Nc3ccc(S(N)(=O)=O)cc32)c2ccccc21`
105

Entry `N#CCCc1ccc2c(c1)-c1[nH]c3ccc([N+](=O)[O-])cc3c1CC(=O)N2` : reported residual activity = ?
98.2

Which residual activity is listed for `O=C1NC(=O)c2cc(Nc3ccc(F)cc3)c(Nc3ccc(F)cc3)cc21` ?
99.4

# lookup: residual activity of `O=c1c(-c2ccc(F)cc2)c(-c2ccncc2)[nH]n1-c1ccc(Cl)cc1`
102

Please give the measured residual activity for this compound: `O=C(c1ccccc1)c1ccc(N2CCOCC2)cc1O`
106

What does the record list as residual activity for `CCOc1cc2ncnc(Nc3cccc(Br)c3)c2cc1OCC` ?
96.7
